# Tested on: A549
# Procedure Summary: Antiproliferative activity against human A549 cells assessed as inhibition of cell growth incubated for 72 hrs by MTT assay
# Format: functional, cell-based
# Study Conditions: A549, 72 h
Quantity Measured: IC50 (µM)
Reply numerically in µM, unit not repeated.

Please fill in: IC50 reported for Nc1nccc(Nc2ccc(NC(=O)C(c3ccccc3)N3Cc4cc(-c5ccc(N6CCNCC6)cc5)ccc4C3=O)cc2F)n1 (stereo not given) = 4.52

Please fill in: IC50 reported for Nc1nccc(Nc2ccc(NC(=O)C(c3ccccc3)N3Cc4cc(-c5ccc(N6CCNCC6)cc5)ccc4C3=O)c(F)c2)n1 (stereo not given) = 1.78

Please fill in: IC50 reported for CCN(CC)c1ccc(-c2ccc3c(c2)CN(C(C(=O)Nc2ccc(Nc4ccnc(N)n4)cc2)c2ccccc2)C3=O)cc1 (racemic) = 15.7

Please fill in: IC50 reported for CN1CCN(c2ccc(-c3ccc4c(c3)CN([C@H](C(=O)Nc3ccc(Nc5ccnc(N)n5)cc3)c3ccccc3)C4=O)cc2)CC1 = 7.18

Please fill in: IC50 reported for Nc1nccc(Nc2ccc(NC(=O)C(c3ccccc3)N3Cc4cc(-c5ccc(N6CCNCC6)cc5)ccc4C3=O)c(Cl)c2)n1 (stereo not given) = 3.96

Please fill in: IC50 reported for Nc1nccc(Nc2ccc(NC(=O)C(c3ccccc3)N3Cc4ccc(-c5ccc(N6CCNCC6)cc5)cc4C3=O)cc2)n1 (stereo not given) = 4.02

Please fill in: IC50 reported for CN1CCN(c2ccc(-c3ccc4c(c3)CN([C@@H](C(=O)Nc3ccc(Nc5ccnc(N)n5)cc3)c3ccccc3)C4=O)cc2)CC1 = 5.14

Please fill in: IC50 reported for Nc1nccc(Nc2cccc(NC(=O)C(c3ccccc3)N3Cc4cc(-c5ccc(N6CCNCC6)cc5)ccc4C3=O)c2)n1 (stereo not given) = 2.21

Please fill in: IC50 reported for COc1nccc(Nc2ccc(NC(=O)C(c3ccccc3)N3Cc4cc(-c5ccc(N6CCNCC6)cc5)ccc4C3=O)cc2)n1 (stereo not given) = 4.88

Please fill in: IC50 reported for Nc1nccc(Nc2ccc(NC(=O)C(c3ccccc3)N3Cc4cc(-c5ccc(N6CCNCC6)cc5)ccc4C3=O)cc2)n1 (stereo not given) = 0.53

Please fill in: IC50 reported for Nc1nccc(Nc2ccc(NC(=O)C(c3ccccc3)N3Cc4cc(-c5ccc(N6CCNCC6)cc5)ccc4C3=O)cc2Cl)n1 (stereo not given) = 4.2

Please fill in: IC50 reported for Cc1nccc(Nc2ccc(NC(=O)C(c3ccccc3)N3Cc4cc(-c5ccc(N6CCNCC6)cc5)ccc4C3=O)cc2)n1 (stereo not given) = 3.97
